# Inhibition (%) per entry
# Tested on: B-16 melanoma cells
# TEST SUMMARY: Melanogenesis inhibition in B-16 melanoma cell culture
# Type: cell-based
# RUN PARAMETERS: melanin production relative to control with nothing added; final concentration 20 ppm; 3 days
# Protocol: The compounds shown in Table 1 were set to have final concentrations of 2 ppm and 20 ppm, and each of the compounds was added to a culture medium of B-16 melanoma cells, followed by incubation for 3 days. […] The melanin was dissolved by addition of 1 mL of a sodium hydroxide solution (1 N) and boiling for 10 min, and then the absorbance was measured at 400 nm using a spectrometer, thereby determining the amount of melanin produced. […]
Expressed in %, but write only the number.

# annotated cases, reported Inhibition (%) shown
C=C(C)c1oc(=O)cc(O)c1C(=O)O: 23.5
C/C=C(\C)c1oc(=O)c(C)cc1C: 21.8
C/C(=C\CO)c1cc(O)cc(=O)o1: 23.5
CC/C=C(\C)c1oc(=O)c(CC)c(C)c1CC: 21.8
CC/C=C(\C)c1oc(=O)c(CC)c(O)c1CC: 21.8

Req: For "C=C(C)c1cc(O)cc(=O)o1" , what is its reported Inhibition (%)?
Resp: 23.5

Req: For "C/C=C(\C)c1oc(=O)c(C)c(O)c1C" , what is its reported Inhibition (%)?
Resp: 23.5

Req: For "CCc1c(C)c(C(=O)O)c(/C(C)=C/CO)oc1=O" , what is its reported Inhibition (%)?
Resp: 21.8

====

# System: B-16 melanoma cells
# TEST SUMMARY: Melanogenesis inhibition in B-16 melanoma cell culture
# Assay type: cell-based
# RUN PARAMETERS: absorbance at 400 nm per 10^6 cells; final concentration 20 ppm; incubation 3 days
# Amount of melanin produced per entry
Enter the number alone.

CC/C=C(\C)c1oc(=O)c(CC)c(O)c1CC [Compound 3]: 0.047
C=C(C)c1oc(=O)cc(O)c1C(=O)O [Compound 4]: 0.046
CCc1c(C)c(C(=O)O)c(/C(C)=C/CO)oc1=O [Compound 9]: 0.047

Req: For CC/C=C(\C)c1oc(=O)c(CC)c(C)c1CC [Compound 10] , what is its reported Amount of melanin produced?
Resp: 0.047

Req: For C/C=C(\C)c1oc(=O)c(C)cc1C [Compound 5] , what is its reported Amount of melanin produced?
Resp: 0.047

Req: For C/C=C(\C)c1oc(=O)c(C)c(O)c1C [Compound 2] , what is its reported Amount of melanin produced?
Resp: 0.046

Req: For C/C(=C\CO)c1cc(O)cc(=O)o1 [Compound 6] , what is its reported Amount of melanin produced?
Resp: 0.046

Req: For C=C(C)c1cc(O)cc(=O)o1 [Compound 1] , what is its reported Amount of melanin produced?
Resp: 0.046

Req: For OC[C@H]1O[C@@H](Oc2ccc(O)cc2)[C@H](O)[C@@H](O)[C@@H]1O [Arbutin, arbutin, reference compound] , what is its reported Amount of melanin produced?
Resp: 0.056
